target: UniProtKB P34976
Sequence (P34976 whole entry): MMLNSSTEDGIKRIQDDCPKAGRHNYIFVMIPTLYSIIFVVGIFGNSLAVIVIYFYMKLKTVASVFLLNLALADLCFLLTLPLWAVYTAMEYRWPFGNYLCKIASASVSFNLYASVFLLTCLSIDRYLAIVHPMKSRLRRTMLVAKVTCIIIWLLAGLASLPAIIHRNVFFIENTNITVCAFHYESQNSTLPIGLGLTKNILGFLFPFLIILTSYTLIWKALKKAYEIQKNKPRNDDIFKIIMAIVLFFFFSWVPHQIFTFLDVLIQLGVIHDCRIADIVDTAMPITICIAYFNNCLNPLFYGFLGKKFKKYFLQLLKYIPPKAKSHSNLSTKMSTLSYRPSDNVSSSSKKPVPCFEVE
pIC50: −log10 of the molar value.
MEASUREMENT_NAME: pIC50

Ask | Param item = CCc1nc2c(C)cc(C)nc2n1Cc1ccc(-c2ccccc2-c2nnn([C@@H]3O[C@H](C(=O)O)[C@@H](O)[C@H](O)[C@H]3O)n2)cc1 ; retrieve measured pIC50.
Reply | > 4.30
